- Tested System: T1, TONSL Ankyrin Repeat Domain (ARD, residues 512-692), purified recombinant (human, UniProt Q96HA7 512-692)
- T1 construct: Expressed as a GST fusion in E. coli; Used in ITC, peptide pull-down and native MS; also called TONSL ARD; TONSL-ARD
- T1 sequence: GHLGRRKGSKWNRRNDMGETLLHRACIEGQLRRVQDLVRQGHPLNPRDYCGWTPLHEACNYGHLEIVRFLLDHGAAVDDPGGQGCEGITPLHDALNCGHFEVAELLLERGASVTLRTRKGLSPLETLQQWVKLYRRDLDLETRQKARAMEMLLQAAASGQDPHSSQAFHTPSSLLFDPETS
- Experiment: native MS, titration Kd (constant peptide to protein ratio, decreasing protein concentration)
Where no end group is shown, it is not given here.
Measured Parameter: Kd (nM)

(A) AKRHRKVLR-NH2 [Ala-Lys-Arg-His-Arg-Lys-Val-Leu-Arg-NH2, Example 12]
(B) KGGAKRHRKVLR-NH2 [Lys-Gly-Gly-Ala-Lys-Arg-His-Arg-Lys-Val-Leu-Arg-NH2, Example 13]
(C) KGGAKRHAKVLR-NH2 (H4 12-23 with Arg19 replaced by Ala) [Lys-Gly-Gly-Ala-Lys-Arg-His-Ala-Lys-Val-Leu-Arg-NH2, Example 14]
## Input Ordering: ascending Kd. Reply format: the labels, ordered as requested.
## Output B, C, A
